measurement.target: vanilloid receptor (Rattus norvegicus, UniProt O35433)
Construct: DRG nerve cells from the primary culture of 2 days were equilibrated; endogenous in cells; host or cells: primary culture of dorsal root ganglion neurons from neonatal SD rats
Sequence (O35433 whole entry): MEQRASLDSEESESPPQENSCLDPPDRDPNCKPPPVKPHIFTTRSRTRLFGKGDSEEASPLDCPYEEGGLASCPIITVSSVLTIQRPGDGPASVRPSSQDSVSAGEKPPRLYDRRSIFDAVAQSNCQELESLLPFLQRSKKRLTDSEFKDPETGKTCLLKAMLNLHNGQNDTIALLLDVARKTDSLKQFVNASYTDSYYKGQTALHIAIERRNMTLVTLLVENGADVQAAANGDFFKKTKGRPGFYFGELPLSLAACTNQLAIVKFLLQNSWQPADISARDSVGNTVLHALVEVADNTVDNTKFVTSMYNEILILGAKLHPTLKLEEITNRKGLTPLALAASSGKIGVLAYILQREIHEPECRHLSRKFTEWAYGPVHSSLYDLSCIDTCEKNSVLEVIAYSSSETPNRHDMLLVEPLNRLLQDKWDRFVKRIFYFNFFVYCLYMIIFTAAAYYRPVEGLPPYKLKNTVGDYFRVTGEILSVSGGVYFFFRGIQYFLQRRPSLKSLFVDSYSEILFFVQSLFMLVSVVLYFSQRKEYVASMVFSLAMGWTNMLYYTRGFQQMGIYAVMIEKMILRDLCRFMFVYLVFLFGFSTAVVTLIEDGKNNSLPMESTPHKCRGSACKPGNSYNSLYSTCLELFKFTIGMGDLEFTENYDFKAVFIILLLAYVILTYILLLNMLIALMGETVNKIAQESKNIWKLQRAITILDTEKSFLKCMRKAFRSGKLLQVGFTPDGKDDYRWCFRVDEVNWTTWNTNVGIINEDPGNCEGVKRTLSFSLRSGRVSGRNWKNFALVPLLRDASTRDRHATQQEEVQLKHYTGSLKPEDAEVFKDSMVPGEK
assay.summary: 45Ca influx test in cultured neonatal rat DRG neurons, inhibition of capsaicin response
Type: cell-based
study.conditions: neonatal rat DRG neurons, capsaicin 0.5 μM, 45Ca influx; read-out: Antagonist Calcium Uptake Test (IC50)
parameter.measured: log10(IC50) (log10 of the value in nM)
The figures below represent log10 of IC50, where IC50 is stated in nM.

CCNc1nc(C(F)(F)F)ccc1/C=C/C(=O)NCc1cc(C)c(NS(C)(=O)=O)c(F)c1 yielded log10(IC50) of 1.32

C#Cc1cc(CNC(=O)/C=C/c2ccc(C(F)(F)F)nc2OCC2CC2)cc(F)c1NS(C)(=O)=O yielded log10(IC50) of 2.56

C#Cc1cc(CNC(=O)/C=C/c2ccc(C(F)(F)F)nc2C#CCN(CC)CC)cc(F)c1NS(C)(=O)=O yielded log10(IC50) of 3.36

CCC(C)Cc1nc(C(F)(F)F)ccc1/C=C/C(=O)NCc1ccc(NS(C)(=O)=O)c(F)c1 (stereo not drawn) yielded log10(IC50) of 2.18

C#Cc1cc(CNC(=O)/C=C/c2ccc(C(F)(F)F)nc2SCC)cc(F)c1NS(C)(=O)=O yielded log10(IC50) of 2.26

C#Cc1cc(CNC(=O)/C=C/c2ccc(C(F)(F)F)nc2SC(C)C)cc(F)c1NS(C)(=O)=O yielded log10(IC50) of 2.30

CC(C)Cc1nc(C(F)(F)F)ccc1/C=C/C(=O)NCc1cc(F)c(NS(C)(=O)=O)c(C#N)c1 yielded log10(IC50) of 2.18

C[C@@H](NC(=O)/C=C/c1ccc(C(F)(F)F)nc1CCc1ccccc1)c1cc(F)c(NS(C)(=O)=O)c(F)c1 yielded log10(IC50) of 1.69

C#Cc1cc(CNC(=O)/C=C/c2ccc(C(F)(F)F)nc2C)cc(F)c1NS(C)(=O)=O yielded log10(IC50) of 3.11

C#Cc1cc(CNC(=O)/C=C/c2ccc(C(F)(F)F)nc2NC2CCCC2)cc(F)c1NS(C)(=O)=O yielded log10(IC50) of 2.18

CCC(C)Nc1nc(C(F)(F)F)ccc1/C=C/C(=O)N[C@H](C)c1ccc(NS(C)(=O)=O)c(F)c1 (stereo partly drawn) yielded log10(IC50) of 1.34

COC1CCN(c2nc(C(F)(F)F)ccc2C=CC(=O)NCc2ccc(NS(C)(=O)=O)c(F)c2)C1 (stereo not drawn) yielded log10(IC50) of 2.61

CCC(C)Oc1nc(C(F)(F)F)ccc1/C=C/C(=O)NCc1cc(F)c(NS(C)(=O)=O)c(C#N)c1 (stereo not drawn) yielded log10(IC50) of 1.92

CC(C)Cc1nc(C(F)(F)F)ccc1/C=C/C(=O)N[C@H](C)c1cc(F)c(NS(C)(=O)=O)c(F)c1 yielded log10(IC50) of 1.38

CC(C)Oc1nc(C(F)(F)F)ccc1/C=C/C(=O)NCc1ccc(NS(C)(=O)=O)c(F)c1 yielded log10(IC50) of 2.87

COc1cc(C(F)(F)F)c(/C=C/C(=O)NCc2ccc(NS(C)(=O)=O)c(F)c2)cn1 yielded log10(IC50) of 3.96

CCCCNc1nc(C(F)(F)F)ccc1/C=C/C(=O)NCc1cc(F)c(NS(C)(=O)=O)c(F)c1 yielded log10(IC50) of 1.54

----------
measurement.target: vanilloid receptor (Rattus norvegicus)
Construct: DRG nerve cells from the primary culture of 2 days were equilibrated; endogenous in cells; host or cells: primary culture of dorsal root ganglion neurons from neonatal SD rats
assay.summary: 45Ca influx test in cultured neonatal rat DRG neurons, inhibition of capsaicin response
Assay type: cell-based
study.conditions: neonatal rat DRG neurons, capsaicin 0.5 μM, 45Ca influx; read-out: Antagonist Calcium Uptake Test (IC50)
Lab note: anything with IC50 below 90 nM is marked Yes; values at 90 nM or higher are marked No.

Would you please look over these solved cases?
>  <molecule>
CS(=O)(=O)Nc1ccc(CNC(=O)/C=C/c2cccnc2N2CCOCC2)cc1F

>  <cat>
No

$$$$
>  <molecule>
C[C@@H](NC(=O)/C=C/c1ccc(C(F)(F)F)nc1N1CCCCC1)c1ccc(NS(C)(=O)=O)c(F)c1

>  <cat>
No

$$$$
>  <molecule>
Cc1nc(C(F)(F)F)ccc1/C=C/C(=O)NCc1ccc(NS(C)(=O)=O)c(F)c1

>  <cat>
No

$$$$

Given CC(C)c1nc(C(F)(F)F)ccc1/C=C/C(=O)N[C@H](C)c1cc(F)c(NS(C)(=O)=O)c(F)c1 , is recorded IC50 strictly lower than 90 nM?
Yes

Given CCC(C)c1nc(C(F)(F)F)ccc1/C=C/C(=O)N[C@H](C)c1ccc(NS(C)(=O)=O)c(F)c1 (stereo partly drawn) , is recorded IC50 strictly lower than 90 nM?
Yes

Given CCCCc1nc(C(F)(F)F)ccc1C#CC(=O)NCc1cc(C)c(NS(C)(=O)=O)c(F)c1 , is recorded IC50 strictly lower than 90 nM?
No

Given CCCCNc1nc(C(F)(F)F)ccc1/C=C/C(=O)N[C@H](C)c1cc(F)c(NS(C)(=O)=O)c(F)c1 , is recorded IC50 strictly lower than 90 nM?
Yes

----------
assay.summary: PK study in rats, single oral administration
Type: in vivo
Parameters: concentration or dose not given beside the values
study.conditions: rat, plasma
parameter.measured: AUC (ng·h/mL)
Lab book: enter the figure in ng·h/mL, no units written.

Solved entries (count: 3):
>  <smiles.data>
C#Cc1cc(CNC(=O)/C=C/c2ccc(C(F)(F)F)nc2NC(C)C)cc(F)c1NS(C)(=O)=O

>  <assay.value>
17400

$$$$
>  <smiles.data>
C#Cc1cc(CNC(=O)/C=C/c2ccc(C(F)(F)F)nc2)cc(F)c1NS(C)(=O)=O

>  <assay.value>
56500

$$$$
>  <smiles.data>
C#Cc1cc(CNC(=O)/C=C/c2ccc(C(F)(F)F)nc2N2CCOCC2)cc(F)c1NS(C)(=O)=O

>  <assay.value>
3240

$$$$

Could you now consider this next molecule?
C#Cc1cc(CNC(=O)/C=C/c2ccc(C(F)(F)F)nc2CCC)cc(F)c1NS(C)(=O)=O yielded AUC of 25900

----------
Below, each entry is listed alongside its reported pIC50.
measurement.target: vanilloid receptor (Rattus norvegicus, UniProt O35433)
Construct: DRG nerve cells from the primary culture of 2 days were equilibrated; endogenous in cells; host or cells: primary culture of dorsal root ganglion neurons from neonatal SD rats
assay.summary: 45Ca influx test in cultured neonatal rat DRG neurons, inhibition of capsaicin response
Assay type: cell-based
study.conditions: neonatal rat DRG neurons, capsaicin 0.5 μM, 45Ca influx; read-out: Antagonist Calcium Uptake Test (IC50)
Lab note — pIC50 values are minus log10 of concentrations in M.

>  <compound>
Cc1cc(CNC(=O)/C=C/c2ccc(C(F)(F)F)nc2-c2cccc(F)c2)cc(F)c1NS(C)(=O)=O [Example 180]

>  <measurement.target>
vanilloid receptor (Rattus norvegicus, UniProt O35433)

>  <pIC50>
6.34

$$$$
>  <compound>
C[C@@H](NC(=O)/C=C/c1ccc(C(F)(F)F)nc1NCc1ccccc1)c1ccc(NS(C)(=O)=O)c(F)c1 [Example 195]

>  <measurement.target>
vanilloid receptor (Rattus norvegicus, UniProt O35433)

>  <pIC50>
7.17

$$$$
>  <compound>
C[C@@H](NC(=O)/C=C/c1ccc(C(F)(F)F)nc1Nc1ccccc1)c1ccc(NS(C)(=O)=O)c(F)c1 [Example 149]

>  <measurement.target>
vanilloid receptor (Rattus norvegicus, UniProt O35433)

>  <pIC50>
6.60

$$$$

Could you now consider this next compound?
C#Cc1cc(CNC(=O)/C=C/c2ccc(C(F)(F)F)nc2CC)cc(F)c1NS(C)(=O)=O [Example 150] yielded pIC50 of 6.68

----------
assay.summary: PK study in rats, single oral administration
Assay type: in vivo
study.conditions: rat, plasma
parameter.measured: Cmax

Solved entries (count: 2):
>  <smiles.data>
C=Cc1cc(CNC(=O)/C=C/c2ccc(C(C)(C)C)cc2N2CCOCC2)cc(F)c1NS(C)(=O)=O

>  <Cmax>
< 100 ng/mL

$$$$
>  <smiles.data>
C=Cc1cc(CNC(=O)/C=C/c2ccc(C(C)(C)C)cc2NC(C)C)cc(F)c1NS(C)(=O)=O

>  <Cmax>
< 100 ng/mL

$$$$

Could you now consider this next compound?
C=Cc1cc(CNC(=O)/C=C/c2ccc(C(C)(C)C)cc2)cc(F)c1NS(C)(=O)=O yielded Cmax of < 100 ng/mL

----------
measurement.target: vanilloid receptor (Rattus norvegicus)
Construct: DRG nerve cells from the primary culture of 2 days were equilibrated; endogenous in cells; host or cells: primary culture of dorsal root ganglion neurons from neonatal SD rats
assay.summary: 45Ca influx test in cultured neonatal rat DRG neurons, inhibition of capsaicin response
Type: cell-based
study.conditions: neonatal rat DRG neurons, capsaicin 0.5 μM, 45Ca influx; read-out: Antagonist Calcium Uptake Test (IC50)
Below, each entry is listed alongside its reported IC50.

>  <smiles.data>
Cc1ccc(OCC(=O)NCc2ccc(NS(C)(=O)=O)c(F)c2)c(CO)n1

>  <IC50>
> 10 µM

$$$$
>  <smiles.data>
C#Cc1cc(CNC(=O)/C=C/c2ccc(C(F)(F)F)nc2)cc(F)c1NS(C)(=O)=O

>  <IC50>
> 10 µM

$$$$

Could you now consider this next compound?
C#Cc1cc(CNC(=O)/C=C/c2ccc(C(F)(F)F)nc2N2CCC[C@H]2C(=O)OCc2ccccc2)cc(F)c1NS(C)(=O)=O yielded IC50 of > 10 µM

These entries and their values trace back to patent US7858621B2.
